assayText: in vitro
recordedConditions: human, hela cells, % viability
Under this convention, Fulfilled denotes viability at 28.5 h, 10 µM strictly below 90% and Not fulfilled denotes viability at 28.5 h, 10 µM at or above 90%.

molecule: COc1cccc(CN2CCCC(NC(=O)c3cn4ccsc4n3)C2)c1 (stereo not drawn) [CBK307204]
assignedCategory: Fulfilled

molecule: CC(C)c1noc(-c2ncn3c2c(=O)n(C(C)C)c2cc(F)ccc23)n1 [CBK016659]
assignedCategory: Not fulfilled

molecule: COc1cccc(NC(=S)NCCCN2CCOCC2)c1 [CBK264548]
assignedCategory: Not fulfilled

molecule: CN1CCN(C(=O)c2ccccc2N(Cc2ccccc2)S(C)(=O)=O)CC1 [CBK266267]
assignedCategory: Not fulfilled

molecule: CCOc1ccccc1OCc1nn2c(-c3ccncc3)nnc2s1 [CBK268535]
assignedCategory: Not fulfilled

molecule: Cc1cccc(C)c1OCC(=O)Nc1c[nH]c(=O)[nH]c1=O [CBK263358]
assignedCategory: Fulfilled

molecule: Cn1c(SCC(=O)N2CCN(c3cccc(Cl)c3)CC2)nnc1-c1cccc([N+](=O)[O-])c1 [CBK266264]
assignedCategory: Not fulfilled
